Tested on: MT2
Experiment: Lethal dose (LD5) concentration inhibiting growth of MT-2 cells by 5%
Format: toxicity, cell-based
Details: human
Each record here notes measured LD5.
# output: bare number, implied unit µM

// LD5 lookup, compound = O=C(/C=C/c1ccc(O)c(O)c1)OC1CCCCC1OC(=O)/C=C/c1ccc(O)c(O)c1 (configuration not stated) , result: 63.6

Note to self: LD5 recorded for O=C(/C=C/c1ccc(O)c(O)c1)Oc1cc(OC(=O)/C=C/c2ccc(O)c(O)c2)cc(C(=O)O)c1 was 100

Form field LD5, entry O=C(/C=C/c1ccc(O)c(O)c1)OC1CCC(OC(=O)/C=C/c2ccc(O)c(O)c2)CC1 (configuration not stated) : 170

Reported LD5 ( O=C(OC(C(=O)O)C(OC(=O)c1cccc(O)c1O)C(=O)O)c1cccc(O)c1O (configuration not stated) ) = 19

The measured LD5 associated with O=C(/C=C/c1ccc(O)c(O)c1)OCCCCOC(=O)/C=C/c1ccc(O)c(O)c1 reads 121

The recorded LD5 for entry COc1ccc(/C=C/C(=O)OC(C(=O)O)C(OC(=O)/C=C/c2ccc(OC)c(OC)c2)C(=O)O)cc1OC (configuration not stated) equals 89
